Documented activity, negative = cell killing across a set of molecules
- test protocol: Drug repurposing screens with cells derived from glioblastoma tumor samples (AID 1345199); note: % is set by controls: 0 for no effect and ±100 for the full control effect; nearly all actives have a fitted effect of over 40% in size
- conditions: GBM patient neurospheres viability, ATP luminescence, 48 h; at 21.2 µM (top of the series); tumour line B
Results filed as inconclusive are left out.
API: value field is a number in %; no unit string.

The cases that follow already have their activity, negative = cell killing on record.
molecule | activity, negative = cell killing / %
O=S(=O)(O)c1cc(O)ccc1O | -13.4
CCC1(C)CC(=O)NC(=O)C1 | -6.36
C[N+]1([O-])[C@@H]2CC(OC(=O)[C@H](CO)c3ccccc3)C[C@H]1[C@@H]1O[C@@H]12 (some centres undefined) | 5.23
C[C@]12CCC(=O)C=C1C=C[C@@H]1[C@@H]2CC[C@@]2(C)[C@H]1CC[C@@]2(O)CCC(=O)O | -2.69
CC[C@H]1[C@@H]2C[C@H]3[C@@H]4N(C)c5ccccc5[C@]45C[C@@H](C2[C@H]5O)N3[C@@H]1O (some centres undefined) | 2.75

// CC(=O)O[C@H]1CC[C@@]2(C)C(=CC[C@@H]3[C@@H]2CC[C@]2(C)C(=O)CC[C@@H]32)C1 : activity, negative = cell killing value = -3.53

// C[N+]1([O-])[C@@H]2CC[C@H]1CC(OC(=O)C(CO)c1ccccc1)C2 (some centres undefined) : activity, negative = cell killing value = -4.66

// CN1[C@@H]2CC[C@H]1CC(OC1c3ccccc3CCc3ccccc31)C2 (some centres undefined) : activity, negative = cell killing value = -28.8

// Clc1ccc(C(Cn2ccnc2)OCc2csc3c(Cl)cccc23)c(Cl)c1 (centres undefined) : activity, negative = cell killing value = -18.1

====

- test protocol: Validation screen for small molecules that induce DNA re-replication in SW480 colon adenocarcinoma cells (AID 504364); note: 0% is about no effect
- conditions: DNA re-replication phenotype (high-content imaging); series mostly up to 46.1 µM
Results filed as inconclusive are left out. Active and inactive are the calls of the source. Calls come from the whole dose curve; as a rule, active = well fitted activation curve with a large enough effect; inconclusive = small, poorly fitted or top-dose-only effect; inactive = flat fitted curve, though single readings scatter.
readout: outcome

The cases that follow already have their outcome on record.
molecule | outcome
C[N+]1(C)CCN(c2ccccc2)CC1 | inactive
N[C@@]1(C(=O)O)CC[C@@H](C(=O)O)C1 | inactive
CCCCCCCCCCCCCC(=O)O[C@@H]1[C@@H](C)[C@@]2(O)[C@@H](C=C(CO)C[C@@]3(O)C(=O)C(C)=C[C@@H]23)C2C(C)(C)[C@@]21OC(C)=O (stereo partly specified) | inactive
O=C(O)c1cc[c]([Hg][Cl])cc1 | inactive
Clc1cc(I)cc(Cl)c1NC1=NCCN1 | inactive

Consider the record given below.
// C[Se]C[C@H](N)C(=O)O : outcome value = inactive

====

- Test system: C2A
- test protocol: qHTS profiling for inhibitors of Plasmodium falciparum proliferation (AID 504749); note: nearly all actives have a fitted effect of over 60% in size
- conditions: P. falciparum in erythrocytes, SYBR Green DNA, 72 h; series mostly up to 28.7 µM
Inconclusive results are not listed. Active and inactive are the calls of the source. Calls come from the whole dose curve; as a rule, active = well fitted inhibition curve with a large enough effect; inconclusive = small, poorly fitted or top-dose-only effect; inactive = flat fitted curve, though single readings scatter.
Form entry, call: pick from active, inactive

# count of solved cases: 2
molecule | group
C[N+]1(C)C2CCC1CC(OC(=O)c1c[nH]c3ccccc13)C2 (configuration not stated) | inactive
CCNC(C)Cc1cccc(C(F)(F)F)c1 (configuration not stated) | inactive

Incoming: I'd appreciate the recorded outcome for c1ccc2cc(CC3=NCCN3)ccc2c1 from this test.
Outgoing: inactive

Incoming: I'd appreciate the recorded outcome for CCOc1ccc2c3c1O[C@H]1[C@@H](O)C=C[C@H]4[C@@H](C2)N(C)CC[C@@]341 from this test.
Outgoing: inactive

Incoming: I'd appreciate the recorded outcome for S=C(S)N1CCNCC1 from this test.
Outgoing: inactive

Incoming: I'd appreciate the recorded outcome for C=CCN1CCC23c4c5ccc(O)c4O[C@H]2C(=O)CC[C@@]3(O)C1C5 (some centres not stated) from this test.
Outgoing: inactive

Incoming: I'd appreciate the recorded outcome for CCC1(CC)C(=O)NC(=O)N(C)C1=O from this test.
Outgoing: inactive

Incoming: I'd appreciate the recorded outcome for CC(=O)OO from this test.
Outgoing: inactive

Incoming: I'd appreciate the recorded outcome for CNC(C)C(O)c1ccc(O)cc1 (configuration not stated) from this test.
Outgoing: inactive

Incoming: I'd appreciate the recorded outcome for COCC(C)N(C(=O)CCl)c1c(C)csc1C (configuration not stated) from this test.
Outgoing: inactive

Incoming: I'd appreciate the recorded outcome for CCCC(C)(COC(N)=O)COC(=O)NC1CC1 (configuration not stated) from this test.
Outgoing: inactive

Incoming: I'd appreciate the recorded outcome for CC(N)Cc1ccc(O)cc1 (configuration not stated) from this test.
Outgoing: inactive

Incoming: I'd appreciate the recorded outcome for OC(c1ccccc1)(c1ccccc1)C1CN2CCC1CC2 (configuration not stated) from this test.
Outgoing: inactive

Incoming: I'd appreciate the recorded outcome for CCC1(C)CC(=O)NC(=O)C1 from this test.
Outgoing: inactive

Incoming: I'd appreciate the recorded outcome for O=C(OCCN1CCCCC1)C(O)(c1ccccc1)c1ccccc1 from this test.
Outgoing: inactive

Incoming: I'd appreciate the recorded outcome for O=S(=O)(O)c1cc(O)ccc1O from this test.
Outgoing: inactive

Incoming: I'd appreciate the recorded outcome for O=C1CN(O)C(c2ccccc2)=c2cc(Cl)ccc2=N1 from this test.
Outgoing: inactive

Incoming: I'd appreciate the recorded outcome for CN1c2ccccc2C(NCCCCCCC(=O)O)c2ccc(Cl)cc2S1(=O)=O (configuration not stated) from this test.
Outgoing: inactive

Incoming: I'd appreciate the recorded outcome for O=[N+]([O-])C(Br)(CO)CO from this test.
Outgoing: inactive

Incoming: I'd appreciate the recorded outcome for C/C(=C\c1csc(C)n1)[C@@H]1C[C@@H]2O[C@]2(C)CCC[C@H](C)[C@H](O)[C@@H](C)C(=O)C(C)(C)[C@@H](O)CC(=O)O1 from this test.
Outgoing: active

Incoming: I'd appreciate the recorded outcome for CCCC(C)C1(CC)C(=O)NC(=O)NC1=O (configuration not stated) from this test.
Outgoing: inactive

Incoming: I'd appreciate the recorded outcome for CC1CCC(C(C)C)C(OC(=O)c2ccccc2N)C1 (configuration not stated) from this test.
Outgoing: inactive

Incoming: I'd appreciate the recorded outcome for CC(C)(C)c1cc(O)ccc1O from this test.
Outgoing: active

Incoming: I'd appreciate the recorded outcome for CC(C)Nc1ccc(Nc2ccccc2)cc1 from this test.
Outgoing: active

Incoming: I'd appreciate the recorded outcome for O=C(CS(=O)C(c1ccccc1)c1ccccc1)NO (configuration not stated) from this test.
Outgoing: inactive

Incoming: I'd appreciate the recorded outcome for CC12NC(Cc3ccccc31)c1ccccc12 (configuration not stated) from this test.
Outgoing: inactive

Incoming: I'd appreciate the recorded outcome for C=CCN(C1=NCCN1)c1c(Cl)cccc1Cl from this test.
Outgoing: inactive
